FYI, the data here is from the RNAGym collection of RNA variant scans (doi:10.7554/elife.80360).

// values below are reported self-cleavage
B1: HDV Ribozyme (parent)
chain: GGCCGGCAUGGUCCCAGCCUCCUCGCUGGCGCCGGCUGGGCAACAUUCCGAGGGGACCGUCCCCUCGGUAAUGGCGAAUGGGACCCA

variants of: B1; assay: self-cleavage, relative activity (ratio to wild type); higher = more cleavage; co-transcriptional

| Polymer Sequence | self-cleavage |
| --- | --- |
| GGCCGGCAUGGUCCCAGCCUCCUCGCUGGCGCCUGCUGGGCGACAUUCCGAGGGGACCGUCCCCUCGGUAAUGGCGAAUGGGACCCA [G34U A42G] | 0.0449 |
| GGCCGGCAUGGUCCCAGCCUCCUCGCUGGCGCCGGCUGGGCAAUAUUCCGAGGGGACCGUCCCCUCGGUAAUAGCGAAUGGGACCCA [C44U G73A] | 0.946 |
| GUCCGGCAUGGUCCCAGCCUCCUCGCUGGCGCCGGCUGGGCAACAUUCCGAGGGGACCGUCCCCUCGGUAACGGCGAAUGGGACCCA [G2U U72C] | 0.0191 |
| GGCCGGCAUGGUCCCAGCCUCCUCGCUGGCGCCGGCUGGGCAACAUUCCGAGGGGACCGUCCCCUCGGAAAUGACGAAUGGGACCCA [U69A G74A] | 0.511 |
| GGCCGGCAUGGUCCCAGCCUCUUCGCUGUCGCCGGCUGGGCAACAUUCCGAGGGGACCGUCCCCUCGGUAAUGGCGAAUGGGACCCA [C22U G29U] | 0.101 |
| GGCCGGCAUGGUCCCAGCCUCCUCGCUGGCGCCGGCUGGGGAACAUUCCGAGGGGACCGUCCCCUCGGUAAUAGCGAAUGGGACCCA [C41G G73A] | 0.712 |
